Examples of compounds with documented MAP follow.
test-description: Systemic hemodynamics during infarct experiment
Type: in vivo, rabbit
reported-conditions: Reperfusion 2 h
metric-name: MAP (mmHg)

compound: FC(F)OC(F)C(F)(F)F (stereo not shown)
value-reported: 58

compound: FC(F)OC(F)(F)C(F)Cl (stereo not shown)
value-reported: 68

compound: FCOC(C(F)(F)F)C(F)(F)F
value-reported: 65

compound: FC(F)OC(Cl)C(F)(F)F (stereo not shown)
value-reported: 54

* * *

test-description: Systemic hemodynamics during infarct experiment
Format: in vivo, rabbit
reported-conditions: Reperfusion 3 h
Examples of compounds with documented RPP follow.

compound: FC(F)OC(Cl)C(F)(F)F (stereo not shown) [ISO, isoflurane]
RPP (bpm × mmHg × 10^3): 13.5
--
compound: FCOC(C(F)(F)F)C(F)(F)F [SEVO, sevoflurane]
RPP (bpm × mmHg × 10^3): 13.8
--
compound: FC(F)OC(F)C(F)(F)F (stereo not shown) [DES, desflurane]
RPP (bpm × mmHg × 10^3): 14.2
--
compound: FC(F)OC(F)(F)C(F)Cl (stereo not shown) [ENF, enflurane]
RPP (bpm × mmHg × 10^3): 17.6
